assay: mouse blood level, paper disc-agar plate assay; type: in vivo; conditions: mouse, blood; mice, im, 50 mg./kg.; read-out: time of peak blood level (converted)

{"compound": "C=C1OC(OC2C(CO)OC(Oc3ccc(C(=O)NCCCNCCCCNCCCCN)cc3)C2O)C(O)C(OC2OC(CO)C(OC3OC(C)C(N)C(O)C3NC(=O)C(C)N)C(O)C2O)C1O (stereo not shown) [Bu-2349A]", "Tmax, min": 15}
